- System: RPE65
- Assay conditions: 10 mg/kg IP; 0 h after light exposure; mean ± SD, n = 3 mice
Experimental endpoint: RE (pmol/eye)
// return numeric value only (unit: pmol/eye, not printed)

## Task Name the recorded RE for CC(CCN)c1cccc(OCC2CCCCC2)c1 (centres unmarked) [Compound 16b] .
## Result 291.5

## Task And then NCCc1cccc(OCC2CCCCC2)c1 [Compound 11b] , what is it?
## Result 225.1

## Task And then CC(CN)Cc1cccc(OCC2CCCCC2)c1 (centres unmarked) [Compound 16c] , what is it?
## Result 253.5

Continuing:
## Task Name the recorded RE for CC(CN)Cc1ccc(F)c(OCC2CCCCC2)c1 (centres unmarked) [Compound 16d] .
## Result 259.9

## Task And then CNCCC(O)c1cccc(OCC2CCCCC2)c1 (centres unmarked) [Compound 16e] , what is it?
## Result 296.6

* * *

- Assay target: RPE65 (Bos taurus, UniProt Q28175)
- Sequence (Q28175 whole entry): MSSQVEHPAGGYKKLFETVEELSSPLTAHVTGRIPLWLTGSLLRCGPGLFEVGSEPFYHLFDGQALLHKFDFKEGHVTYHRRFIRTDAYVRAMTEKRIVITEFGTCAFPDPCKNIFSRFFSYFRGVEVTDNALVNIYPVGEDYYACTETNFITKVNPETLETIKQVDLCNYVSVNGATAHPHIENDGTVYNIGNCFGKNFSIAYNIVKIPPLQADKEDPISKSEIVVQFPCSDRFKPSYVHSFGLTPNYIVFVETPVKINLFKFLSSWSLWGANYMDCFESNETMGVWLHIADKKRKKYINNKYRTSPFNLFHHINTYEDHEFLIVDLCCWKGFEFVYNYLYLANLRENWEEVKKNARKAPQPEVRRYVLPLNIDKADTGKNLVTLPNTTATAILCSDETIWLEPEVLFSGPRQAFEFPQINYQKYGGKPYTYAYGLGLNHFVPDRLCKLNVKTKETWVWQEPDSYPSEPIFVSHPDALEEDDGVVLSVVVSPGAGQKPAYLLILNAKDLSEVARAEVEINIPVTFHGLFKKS
- Method description: RPE65 activity assay in vitro (11-cis-retinol production by bovine RPE microsomes)
- Assay conditions: read-out: IC50 ± SD; bovine RPE microsomes; mean ± SD, n = 3
pIC50 by entry:
Keep it numeric: pIC50 is minus log10 of the concentration in mol/L.

Recorded results for 5 compounds are shown here.
## Task Name the recorded pIC50 for NCCC(O)c1ccccc1OCC1CCCCC1 (stereo not drawn) .
## Result 5.33

## Task And then NCCc1ccc(F)c(OCC2CCCCC2)c1 [Compound 11d] , what is it?
## Result 5.91

## Task And then CC(CCN)c1cccc(OCC2CCCCC2)c1 (stereo not drawn) [Compound 16b] , what is it?
## Result 6.09

## Task And then NCC(O)c1cccc(OCC2CCCCC2)c1 (stereo not drawn) [Compound 11a] , what is it?
## Result 5.50

## Task And then NCCCc1cccc(OCC2CCCCC2)c1 [Compound 16a] , what is it?
## Result 5.81

In the following, a different compound is considered.
## Task Name the recorded pIC50 for CC(CN)c1cccc(OCC2CCCCC2)c1 (stereo not drawn) [Compound 11c] .
## Result 5.17

* * *

- Assay target: RPE65 (Bos taurus, UniProt Q28175)
- Method description: RPE65 activity assay in vitro (11-cis-retinol production by bovine RPE microsomes)
IC50 by entry:
// return numeric value only (unit: µM, not printed)

## Task Name the recorded IC50 for CC(CN)Cc1cccc(OCC2CCCCC2)c1 (centres unmarked) [Compound 16c] .
## Result 0.59

In the following, a different compound is considered.
## Task Name the recorded IC50 for NCCC(O)c1ccc(OCC2CCCCC2)cc1 (centres unmarked) .
## Result 8.98

* * *

- Assay conditions: read-out: 16e level in serum; after single IP of 16e; 4 h; 10 mg/kg
Experimental endpoint: concentration (nM)
// return numeric value only (unit: nM, not printed)

## Task Name the recorded concentration for CNCCC(O)c1cccc(OCC2CCCCC2)c1 (stereo not shown) [Compound 16e] .
## Result 111

* * *

- System: RPE65
- Assay conditions: 10 mg/kg IP; 24 h; mean ± SD, n = 3 mice
RE by entry:
// return numeric value only (unit: pmol/eye, not printed)

Recorded results for 3 compounds are shown here.
## Task Name the recorded RE for NCCc1cccc(OCC2CCCCC2)c1 [Compound 11b] .
## Result 377.3

## Task And then CC(CN)Cc1ccc(F)c(OCC2CCCCC2)c1 (stereo not shown) [Compound 16d] , what is it?
## Result 122.7

## Task And then CC(CCN)c1cccc(OCC2CCCCC2)c1 (stereo not shown) [Compound 16b] , what is it?
## Result 123.9

In the following, a different compound is considered.
## Task Name the recorded RE for CC(CN)Cc1cccc(OCC2CCCCC2)c1 (stereo not shown) [Compound 16c] .
## Result 85.6

* * *

- Assay target: UniProt Q28175
- Method description: RPE65 activity assay in vitro (11-cis-retinol production by bovine RPE microsomes)
- Assay conditions: bovine RPE microsomes
Experimental endpoint: pIC50
Keep it numeric: pIC50 is minus log10 of the concentration in mol/L.

## Task Name the recorded pIC50 for NCCc1cccc(OCC2CCCCC2)c1 [Compound 11b] .
## Result 6.38

* * *

- System: mouse liver microsomes (CYP-450 enzymes)
Experimental endpoint: Km (µM)
// return numeric value only (unit: µM, not printed)

## Task Name the recorded Km for CNCCC(O)c1cccc(OCC2CCCCC2)c1 (stereo not shown) [Compound 16e] .
## Result 39

* * *

- System: RPE65
- Assay conditions: 10 mg/kg IP; 24 h; mean ± SD, n = 3 mice
Experimental endpoint: 11cRAL (pmol/eye)
// return numeric value only (unit: pmol/eye, not printed)

## Task Name the recorded 11cRAL for CC(CCN)c1cccc(OCC2CCCCC2)c1 (centres unmarked) [Compound 16b] .
## Result 370.5

## Task And then CNCCC(O)c1cccc(OCC2CCCCC2)c1 (centres unmarked) [Compound 16e] , what is it?
## Result 201.8

## Task And then CC(CN)Cc1ccc(F)c(OCC2CCCCC2)c1 (centres unmarked) [Compound 16d] , what is it?
## Result 398.0

## Task And then NCCc1cccc(OCC2CCCCC2)c1 [Compound 11b] , what is it?
## Result 137.4

## Task And then CC(CN)Cc1cccc(OCC2CCCCC2)c1 (centres unmarked) [Compound 16c] , what is it?
## Result 253.5

* * *

- Method description: in vitro
- Assay conditions: mouse, microsomes
Experimental endpoint: Km
Provide a numeric answer, followed by its unit.

## Task Name the recorded Km for CNCCC(O)c1cccc(OCC2CCCCC2)c1 (stereo not shown) [Compound 16e] .
## Result 39 µM

* * *

RE by entry:
- Test system: RPE65
- Assay conditions: 10 mg/kg IP; 4 h; mean ± SD, n = 3 mice
// return numeric value only (unit: pmol/eye, not printed)

## Task Name the recorded RE for CC(CN)Cc1cccc(OCC2CCCCC2)c1 (stereo not shown) [Compound 16c] .
## Result 111.9

## Task And then CNCCC(O)c1cccc(OCC2CCCCC2)c1 (stereo not shown) [Compound 16e] , what is it?
## Result 393.5

## Task And then CC(CN)Cc1ccc(F)c(OCC2CCCCC2)c1 (stereo not shown) [Compound 16d] , what is it?
## Result 101.1

In the following, a different compound is considered.
## Task Name the recorded RE for CC(CCN)c1cccc(OCC2CCCCC2)c1 (stereo not shown) [Compound 16b] .
## Result 435.5

Where do the numbers come from? From patent US20260308108A1.
